The origin of these recorded values is patent US6410585B1.

assayed_target: human PTP1B (Homo sapiens, UniProt P18031)
Construct: human PTP1B (amino acid residues 1-321); made in house; host or cells: E. coli BL21(DE3)
Sequence (P18031 1-321): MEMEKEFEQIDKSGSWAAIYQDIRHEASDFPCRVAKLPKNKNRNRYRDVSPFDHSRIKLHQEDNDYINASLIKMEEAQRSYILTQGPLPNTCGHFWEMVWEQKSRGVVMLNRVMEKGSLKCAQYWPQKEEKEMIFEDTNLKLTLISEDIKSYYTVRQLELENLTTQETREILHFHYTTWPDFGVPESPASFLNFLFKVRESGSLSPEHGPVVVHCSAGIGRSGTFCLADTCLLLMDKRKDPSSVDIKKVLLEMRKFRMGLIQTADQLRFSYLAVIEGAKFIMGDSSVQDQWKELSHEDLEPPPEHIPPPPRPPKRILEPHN
assay_explanation: PTP1B assay, pNPP hydrolysis, assayed exactly as for PTP1
Type: biochemical
test_settings: Conc 10 uM, Table 2, read-out: PTP1B Inhib PTP1B. % Inhib
Returns the class for an entry based on its inhibition at 10 µM. Class ranges: low range (below 30%), mid range (30% to below 70%), high range (70% or more)

These recorded examples may help you get a feel for the data.
compound="CCCCCNC(=O)[C@H](Cc1ccc(OC(C(=O)O)C(=O)O)cc1)NC(=O)C(Cc1ccccc1)NC(=O)OC(C)(C)C (stereo partly shown)" category="low range"
compound="CCCCCNC(=O)C(Cc1ccc(OC(COO)COO)cc1)NC(=O)C(CC(C)C)NC(=O)OC(C)(C)C (stereo not shown)" category="low range"

Ask | Bin? CCCCCNC(=O)C(Cc1ccc(OCCOO)c(COO)c1)NC(=O)C(Cc1ccccc1)NC(=O)Cc1ccccc1 (stereo not shown)
Reply | high range

Ask | Consider next the compound CCCCCNC(=O)C(Cc1ccc(OC(COO)COO)cc1)NC(=O)C(CCCCNC(=O)OCc1ccccc1)NC(=O)OC(C)(C)C (stereo not shown) in the same way.
Reply | low range

Ask | Field entry: CCCCCNC(=O)C(Cc1ccc(OC(COO)COO)cc1)NC(=O)C(CSCc1ccccc1)NC(=O)OC(C)(C)C (stereo not shown)
Reply | low range

Ask | # repeat for CCCCCNC(=O)C(Cc1ccc(OC(COO)COO)cc1)NC(=O)C(CCSC)NC(=O)OC(C)(C)C (stereo not shown)
Reply | low range

Ask | Follow-up entry: CCCCCNC(=O)C(Cc1ccc(OC(COO)COO)cc1)NC(=O)C(Cc1ccccc1)NC(=O)CCOC (stereo not shown)
Reply | mid range

Ask | Same lookup for CCCCCNC(=O)C(Cc1ccc(OC(COO)COO)cc1)NC(=O)C(Cc1ccc(C(=O)c2ccccc2)cc1)NC(=O)OC(C)(C)C (stereo not shown) , please.
Reply | mid range

Ask | Now try "CCCCCNC(=O)[C@H](Cc1ccc(N(CC(=O)O)CC(=O)O)cc1)NC(=O)[C@H](Cc1ccccc1)NC(=O)OC(C)(C)C" .
Reply | low range

Ask | Repeat for the following compound: CCCCCNC(=O)C(Cc1ccc(OC(C(=O)O)C(=O)O)cc1)NC(=O)[C@H](Cc1c[nH]c2ccccc12)NC(=O)OC(C)(C)C (stereo partly shown)
Reply | mid range

Ask | Repeat for the following compound: CCCCCNC(=O)C(Cc1ccc(OC(COO)COO)cc1)NC(=O)C(Cc1ccccc1)NS(=O)OC (stereo not shown)
Reply | mid range

Ask | Another compound to look at: CCCCCNC(=O)C(Cc1ccc(OC(COO)COO)cc1)NC(=O)C(Cc1cccc2ccccc12)NC(=O)OC(C)(C)C (stereo not shown)
Reply | mid range

Ask | Quick one: CCCCCNC(=O)C(Cc1ccc(OCCOO)c(COO)c1)NC(=O)C(Cc1ccccc1)NC(=O)CCNS(C)(=O)=O (stereo not shown)
Reply | high range

Ask | Moving on to the next compound: CCCCCNC(=O)C(Cc1ccc(OCCOO)c(COO)c1)NC(=O)CCc1ccccc1 (stereo not shown)
Reply | low range

Ask | Queued: CCCCCNC(=O)C(Cc1ccc(OC(COO)COO)cc1)NC(=O)C(Cc1ccccc1)NC(=O)CCNC(=O)OC(C)(C)C (stereo not shown)
Reply | mid range

Ask | What would you report for CCCCCNC(=O)C(Cc1ccc(OC(COO)COO)cc1)NC(=O)C(Cc1ccccc1)NC(=O)NC(C)(C)C (stereo not shown) ?
Reply | mid range

Ask | Let us now turn to CCCCCNC(=O)C(Cc1ccc(OCCOO)c(COO)c1)NC(=O)C(Cc1ccccc1)NC(=O)Cc1ccc(C(F)(F)F)cc1 (stereo not shown)
Reply | high range

Ask | And the next one, CCCCCNC(=O)C(Cc1ccc(OCCOO)c(COO)c1)NC(=O)C(Cc1ccccc1)NC(C)=O (stereo not shown) ?
Reply | high range
